This collection of values is drawn from ChEMBL document CHEMBL5375962.

- test_system: Ketohexokinase (Homo sapiens, UniProt P50053)
- Sequence (P50053 whole entry): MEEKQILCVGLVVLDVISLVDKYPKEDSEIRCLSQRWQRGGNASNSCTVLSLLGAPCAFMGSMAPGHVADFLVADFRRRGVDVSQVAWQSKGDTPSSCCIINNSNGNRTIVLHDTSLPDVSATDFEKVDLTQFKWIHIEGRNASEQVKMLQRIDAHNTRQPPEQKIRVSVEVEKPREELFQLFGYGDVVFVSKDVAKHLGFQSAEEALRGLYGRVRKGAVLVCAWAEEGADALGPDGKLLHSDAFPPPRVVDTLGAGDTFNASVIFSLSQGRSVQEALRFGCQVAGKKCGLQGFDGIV
- measurement_notes: Inhibition of KHK in human HepG2 cells incubated for 3 hrs by Rapidfire MS analysis
- Type: cell-based
measurement_label: IC50 (nM)

>  <compound>
C[C@H]1CCN1c1nc(-c2cnn(C3CNC3)c2)cc(C(F)(F)F)n1

>  <unit_of_measure>
nM

>  <IC50>
6

$$$$
>  <compound>
C[C@H]1CCN1c1nc(-c2cnn(C3CCN(C)CC3)c2)cc(C(F)(F)F)c1C#N

>  <unit_of_measure>
nM

>  <IC50>
20

$$$$
>  <compound>
C[C@H]1CCN1c1nc(-c2cnn(C3CCNCC3)c2)cc(C(F)(F)F)c1C#N

>  <unit_of_measure>
nM

>  <IC50>
5

$$$$
>  <compound>
C[C@H]1CCN1c1nc(-c2cnn(C3CCNCC3)c2)cc(C(F)(F)F)n1

>  <unit_of_measure>
nM

>  <IC50>
26

$$$$
>  <compound>
C[C@H]1CCN1c1nc(-c2cnn(C3CCOCC3)c2)cc(C(F)(F)F)c1C#N

>  <unit_of_measure>
nM

>  <IC50>
118

$$$$

1. C[C@H]1CCN1c1nc(-c2cn[nH]c2)cc(C(F)(F)F)c1C#N
2. C[C@H]1CCN1c1nc(-c2cnn(CC(=O)N3C[C@@H](O)[C@H](O)C3)c2)cc(C(F)(F)F)c1C#N
3. C[C@H]1CCN1c1nc(-c2cnn(C3CN(C)C3)c2)cc(C(F)(F)F)n1
Problem: Provide the items ranked by increasing IC50. Could you list the labels in the order requested?
Solution: 3, 1, 2
